Biological target: GST-JAK2(808-1132) (Homo sapiens)
Construct: GST-JAK2(808-1132); purchased Invitrogen (Carlsbad, USA) #4288
Assay: JAK2 kinase assay (Caliper mobility shift, LabChip 3000)
Type: biochemical
Method: All four kinases of the JAK/TYK-kinase family were used as purified recombinant GST-fusion proteins, containing the active kinase domains. GST-JAK1 (866-1154), GST-JAK3(811-1124), and GST-TYK2(888-1187) were expressed and purified by affinity chromatography at the EPK biology unit. […] The terminated reactions were transferred to the Caliper LabChip 3000 reader and the turnover of each reaction was measured by determining the substrate/product ratio. […]
Field: IC50. Provide a value for each of the compounds that follow.
One number for each entry, in nM.

Below, 2 compounds whose answers are already recorded.
[
  {
    "compound": "CC(=O)N1CCN(Cc2ccc(Nc3ncc4ccn(-c5cc(F)c(C(=O)N6CCOCC6)c(F)c5)c4n3)cc2)CC1",
    "IC50 / nM": 3.2
  },
  {
    "compound": "O=C(c1cccc(Nc2ncc3ccn(-c4cc(F)c(CN5CCOCC5)c(F)c4)c3n2)c1)N1CCOCC1",
    "IC50 / nM": 4.5
  }
]

# batch: return IC50 for each of the 7 compounds below
1. O=S1(=O)CCN(Cc2c(F)cc(-n3ccc4cnc(Nc5ccccn5)nc43)cc2F)CC1
2. Cc1ccc(Nc2ncc3ccn(-c4cc(F)c(CN5CCN(C)C(=O)C5)c(F)c4)c3n2)cc1C
3. CC(C)Oc1ccc(Nc2ncc3ccn(-c4ccc(N5CCNCC5=O)cc4)c3n2)cc1
4. Cc1cc(Nc2ncc3ccn(-c4ccc(C(=O)N5CCOCC5)c(F)c4)c3n2)ccc1F
5. N#Cc1ccc(Nc2ncc3ccn(-c4cc(F)c(CN5CCOCC5)c(F)c4)c3n2)cc1
6. CC(C)Oc1ccc(Nc2ncc3ccn(-c4ccc(C(=O)N5CCOCC5)c(Cl)c4)c3n2)cc1
7. COc1cc(Nc2ncc3ccn(-c4ccc(C(=O)N5CCOCC5)cc4)c3n2)ccc1C

Resp:
15.5
6.4
3.6
4.2
11
3.9
5.2

# batch: return IC50 for each of the 5 compounds below
1. CCN1CCN(Cc2c(F)cc(-n3ccc4cnc(Nc5ccc(F)c(C)c5)nc43)cc2F)CC1=O
2. Cc1ccc(Nc2ncc3ccn(-c4ccc(C(=O)N5CCOCC5)c(F)c4)c3n2)cn1
3. Cc1ccc(Nc2ncc3ccn(-c4cc(F)c(CN5CCN(C(C)C)CC5)c(F)c4)c3n2)cc1C
4. Cc1ccc(Nc2ncc3ccn(-c4ccc(C(=O)N5CCOCC5)cc4)c3n2)cn1
5. CCN1CCN(Cc2ccc(-n3ccc4cnc(Nc5ccc(C)c(Cl)c5)nc43)cc2F)CC1

Resp:
[20.5, 9.2, 26, 11.1, 155]

----------
Molecular target: GST-JAK2(808-1132) (Homo sapiens)
Construct: GST-JAK2(808-1132); purchased Invitrogen (Carlsbad, USA) #4288
Assay: JAK2 kinase assay (Caliper mobility shift, LabChip 3000)
Format: biochemical
Settings: Table 3
Method: All four kinases of the JAK/TYK-kinase family were used as purified recombinant GST-fusion proteins, containing the active kinase domains. GST-JAK1 (866-1154), GST-JAK3(811-1124), and GST-TYK2(888-1187) were expressed and purified by affinity chromatography at the EPK biology unit. […] The terminated reactions were transferred to the Caliper LabChip 3000 reader and the turnover of each reaction was measured by determining the substrate/product ratio. […]
result-type: IC50 (nM)
Give bare numbers, in nM.

[
  {
    "smiles-text": "Fc1cc(-n2ccc3cnc(Nc4ccnc(CN5CCNCC5)c4)nc32)cc(F)c1CN1CCOCC1",
    "readout-unit": "nM",
    "experimental-result": 4.7
  }
]

# batch: return IC50 for each of the 2 molecules below
1. CN1CCN(c2ccc(Nc3ncc4ccn(-c5cc(F)c(CN6CCS(=O)(=O)CC6)c(F)c5)c4n3)nc2)CC1
2. CC(C)Oc1ccc(Nc2ncc3ccn(-c4ccc(C#N)cc4)c3n2)cc1

Resp:
1. 3.2
2. 48.5

----------
Target: GST-JAK2(808-1132) (Homo sapiens)
Construct: GST-JAK2(808-1132); purchased Invitrogen (Carlsbad, USA) #4288
Experiment: JAK2 kinase assay (Caliper mobility shift, LabChip 3000)
Assay type: biochemical
Field: pIC50. Provide a value for each of the molecules that follow.
Answers are plain numbers, as −log10 of the molar value.

Below, 2 molecules whose answers are already recorded.
[
  {
    "smiles-text": "CC(C)Oc1ccc(Nc2ncc3ccn(-c4ccc(C#N)cc4)c3n2)cc1",
    "tested-on": "GST-JAK2(808-1132) (Homo sapiens)",
    "pIC50": 7.31
  },
  {
    "smiles-text": "CC(C)(C)NS(=O)(=O)c1ccc(-n2ccc3cnc(Nc4ccc(CN5CCN(C6CC6)CC5)cc4)nc32)cc1",
    "tested-on": "GST-JAK2(808-1132) (Homo sapiens)",
    "pIC50": 8.48
  }
]

# batch: return pIC50 for each of the 7 molecules below
1. COCc1c(F)cc(-n2ccc3cnc(Nc4ccc(N5CCN(C)CC5)nc4)nc32)cc1F
2. CN1CCN(Cc2cc(Nc3ncc4ccn(-c5ccc(C(=O)N6CCS(=O)(=O)CC6)c(F)c5)c4n3)ccn2)CC1
3. O=C1CNCCN1c1ccc(Nc2ncc3ccn(-c4cc(F)c(CN5CCOCC5)c(F)c4)c3n2)cn1
4. CN1CCN(c2ccc(Nc3ncc4ccn(-c5ccc(N6CCCC6=O)cc5)c4n3)cn2)CC1
5. CC(C)Oc1ccc(Nc2ncc3ccn(-c4ccc(CN5CCOCC5)c(F)c4)c3n2)cc1
6. O=C(c1ccc(-n2ccc3cnc(Nc4ccc(CN5CCNCC5)cc4)nc32)cc1F)N1CCOCC1
7. CCN1CCN(Cc2ccc(Nc3ncc4ccn(-c5cc(F)c(C(=O)N6CCN(C)CC6)c(F)c5)c4n3)cc2)CC1

Resp:
1. 8.37
2. 8.40
3. 7.21
4. 7.64
5. 8.03
6. 8.43
7. 7.55

# batch: return pIC50 for each of the 6 molecules below
1. Fc1cc(-n2ccc3cnc(Nc4ccc(CC5CCNCC5)cc4)nc32)cc(F)c1CN1CCOCC1
2. O=C(c1c(F)cc(-n2ccc3cnc(Nc4nccs4)nc32)cc1F)N1CCOCC1
3. Cc1cc(Nc2ncc3ccn(-c4ccc(C(=O)N5CCOCC5)c(F)c4)c3n2)nn1C
4. Cc1ccc(Nc2ncc3ccn(-c4ccc(CC(=O)N5CCN(C)CC5)cc4)c3n2)cc1C
5. Cc1ccc(Nc2ncc3ccn(-c4ccc(C5(C(=O)N6CCN(C)CC6)CC5)cc4)c3n2)cc1Cl
6. Cc1ccc(Nc2ncc3ccn(-c4ccc(CN5CCS(=O)(=O)CC5)c(F)c4)c3n2)cc1Cl

Resp:
1: 8.29; 2: 7.55; 3: 7.51; 4: 8.10; 5: 8.03; 6: 7.81

----------
Field: pIC50. Provide a value for each of the compounds that follow.
Target: GST-JAK2(808-1132) (Homo sapiens, UniProt O60674)
Construct: GST-JAK2(808-1132); purchased Invitrogen (Carlsbad, USA) #4288
Sequence (O60674 808-1132): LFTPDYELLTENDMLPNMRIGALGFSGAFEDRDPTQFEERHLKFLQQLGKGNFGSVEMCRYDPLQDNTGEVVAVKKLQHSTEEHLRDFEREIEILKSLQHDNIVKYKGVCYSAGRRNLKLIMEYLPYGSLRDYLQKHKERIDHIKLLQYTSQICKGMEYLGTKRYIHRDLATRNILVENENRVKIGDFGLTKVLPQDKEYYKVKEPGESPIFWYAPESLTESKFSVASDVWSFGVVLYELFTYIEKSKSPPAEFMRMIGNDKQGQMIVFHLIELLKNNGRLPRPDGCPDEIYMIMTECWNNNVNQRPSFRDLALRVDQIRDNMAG
Assay: JAK2 kinase assay (Caliper mobility shift, LabChip 3000)
Assay type: biochemical
Give bare numbers, as −log10 of the molar value.

[
  {
    "compound": "CN1CCN(Cc2ccc(Nc3ncc4ccn(-c5ccc(C(=O)N6CCOCC6)c(F)c5)c4n3)cc2)CC1=O [Example 337]",
    "pIC50": 8.21
  },
  {
    "compound": "Cc1ccc(Nc2ncc3ccn(-c4cc(F)c(CN5CCOCC5)c(F)c4)c3n2)cc1CN1CCNC(C(F)(F)F)C1 (racemic) [Example 404]",
    "pIC50": 8.25
  },
  {
    "compound": "CN1CCN(C(=O)c2ccc(Nc3ncc4ccn(-c5ccc(S(C)(=O)=O)cc5)c4n3)cc2F)CC1 [Example 71]",
    "pIC50": 8.17
  }
]

# batch: return pIC50 for each of the 2 compounds below
1. Cc1ccc(Nc2ncc3ccn(-c4ccc(C(=O)N5CCOCC5)cc4)c3n2)cc1F [Example 233]
2. CS(=O)(=O)c1ccc(-n2ccc3cnc(Nc4ccc(C#N)cc4)nc32)cc1 [Example 95]

Resp:
1: 8.19; 2: 7.78

# batch: return pIC50 for each of the 3 compounds below
1. Cc1ccc(Nc2ncc3ccn(-c4ccc(C(=O)N5CCOCC5)c(F)c4)c3n2)cc1CN1CCN(C2CC2)CC1 [Example 366]
2. CCOc1ccc(Nc2ncc3cc(C)n(-c4ccc(CC(=O)N5CCN(C)CC5)cc4)c3n2)cc1OCC [Example 167]
3. CN1CCN(c2ccc(Nc3ncc4ccn(-c5ccc6c(c5)CC(=O)N6C)c4n3)cn2)CC1 [Example 448]

Resp:
1. 8.07
2. 7.41
3. 8.30

----------
Tested on: JAK2-dependent nuclear translocation of STAT5-GFP in U-2 OS osteosarcoma cells
Assay: STAT5 nuclear translocation assay (Cellomics), rhEpo stimulated U-2 OS STAT5-GFP cells
Type: cell-based
Settings: Homo sapiens, U2OS; STAT5 translocation pathway
Threshold 40 nM: IC50 strictly smaller gives 1 (yes), otherwise 0 (no).

[
  {
    "compound": "C[C@@H]1CN(Cc2ccc(Nc3ncc4ccn(-c5cc(F)c(CN6CCCC6=O)c(F)c5)c4n3)cc2)C[C@H](C)N1",
    "cat": "0 (no)"
  },
  {
    "compound": "CN1CCN(Cc2ccc(Nc3ncc4ccn(-c5cc(F)c(CN6CCOCC6)c(F)c5)c4n3)cn2)CC1=O",
    "cat": "0 (no)"
  },
  {
    "compound": "Cc1ccc(Nc2ncc3ccn(-c4cc(F)c(CN5CCOCC5)c(F)c4)c3n2)cc1CN1CCN(C2CC2)CC1",
    "cat": "0 (no)"
  }
]

Read the next record carefully.
Req: Answer whether the compound Fc1cc(-n2ccc3cnc(Nc4ccnc(CN5CCNCC5)c4)nc32)cc(F)c1CN1CCOCC1 has IC50 strictly less than 40 nM
Resp: 0 (no)
